# Tested on: HepG2
# Assay method text: GSK_TCMDC: Percent inhibition of human HepG2 cell line. Test compounds present at 10uM.
# Type: functional
I'd appreciate it if you could supply Inhibition values for the items below.
Write the value in % as a bare number.

Request: May I ask what Inhibition has been recorded for CCCC(=O)Nc1ccc(OCCCCN(CC(C)(C)C)c2ccc(C#N)c(C(F)(F)F)c2)cc1 ?
Result: 9

Request: Same for Cc1cc(N[C@@H](CC(C)C)C(=O)NCc2cccc(F)c2)nc(NCCc2ccccc2)n1.O=C(O)C(F)(F)F
Result: 6

Request: Same for Cn1c(N)c(C(=O)CSc2nnc(-c3cccs3)n2Cc2ccccc2)c(=O)n(C)c1=O
Result: 0

Request: Same for COc1cc(Nc2nccn3c(-c4ccsc4)cnc23)cc(OC)c1OC
Result: 26

Request: Same for COc1cc(NC(=O)c2c(-c3c(F)cccc3Cl)noc2C)c(OC)cc1Cl
Result: 0

Request: Same for O=C(Nc1ccc(Cl)cc1)Nc1cccc(-c2cccc(-c3nc4cc(F)ccc4[nH]3)c2)c1
Result: 79

Request: Same for Cl.Cn1ccnc1S(=O)(=O)CCNCc1ccc(-c2ccc3ncnc(Nc4ccc(OCc5cccc(F)c5)c(Cl)c4)c3c2)o1
Result: 0

Request: Same for Cl.O=c1cc(NCCCNCc2sc(Br)nc2Br)[nH]c2ccccc12
Result: 1

Request: Same for CO/C(=C\C=C\c1cc2cc(Cl)c(Cl)cc2[nH]1)C(=O)NCCCN1CCCC[C@@H]1C
Result: 33

Request: Same for CC(Nc1nncc(-c2cccc(F)c2)n1)c1ccc(F)cc1 (centres undefined)
Result: 4

Request: Same for O=C(Nc1ccc(OC2CCN(Cc3ccccc3)C2)c(Cl)c1)c1ccsc1.O=C(O)C(F)(F)F (centres undefined)
Result: 12

Request: Same for CCCN1CCC(c2c[nH]c3ccc(NC(=O)Nc4cccc(Cl)c4Cl)cc23)CC1
Result: 30

Request: Same for O=C(N[C@H]1CCN(Cc2ccc(OCCN3CCCC3)c(Cl)c2)C1)c1ccc(Cl)c(Cl)c1.O=C(O)C(F)(F)F
Result: 68

Request: Same for N=C1SC(=Cc2cn[nH]c2-c2ccc(F)cc2)C(=O)N1c1nccs1
Result: 28

Request: Same for O=C(c1ccccc1)N1COCC(CCN2CCC(N3CCCC3)CC2)(c2ccc(Cl)c(Cl)c2)C1 (centres undefined)
Result: 18

Request: Same for Cc1cccc(C)c1CNc1cccc(-c2nc(C)c(C)[nH]2)c1.Cl
Result: 58

Request: Same for Fc1cccc(COc2ccc(Nc3ncnc4cc(/C=C/[C@@H]5CCCN5)sc34)cc2Cl)c1
Result: 17

Request: Same for CCC[C@@H]([C@@H](CC1CCCCC1)C(=O)N[C@H](C(=O)Nc1nccs1)C(C)(C)SCCOCCOCC)N(O)C=O
Result: 40

Request: Same for Cc1cccc2nc(-c3ccc(-c4ccc(CNCc5ccc(S(C)(=O)=O)cc5)cc4)cc3)[nH]c12.O=C(O)C(F)(F)F
Result: 19
